Source of measurements: the supplement of paper PMC11061612

Known Bliss excess of a selection of molecules
tested on: EW-7 (Ewing's Sarcoma); experiment: Bliss excess, mean over the matrix (fraction); higher = more synergy;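 also: after 72 h of two-drug dosing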

Observe how each entry below is paired with its result.
MOLECULE	MEASURED ON	Bliss excess
CC(=O)c1c(C)c2cnc(Nc3ccc(N4CCNCC4)cn3)nc2n(C2CCCC2)c1=O [Palbociclib] + CC1(C)CCC(CN2CCN(c3ccc(C(=O)NS(=O)(=O)c4ccc(NCC5CCOCC5)c([N+](=O)[O-])c4)c(Oc4cnc5[nH]ccc5c4)c3)CC2)=C(c2ccc(Cl)cc2)C1 [Venetoclax] (first compound max 10 µM, 7x7, partner max 1 µM)	EW-7 (Ewing's Sarcoma)	0.0071
N#Cc1cnc(Nc2cc(NC[C@H]3CNCCO3)c(C(F)(F)F)cn2)cn1 [SRA737] + Nc1ccn([C@@H]2O[C@H](CO)[C@@H](O)C2(F)F)c(=O)n1 [Gemcitabine] (first compound max 10 µM, 7x7, partner max 0.3 µM)	EW-7 (Ewing's Sarcoma)	0.0349
COc1cc2ncnc(Nc3ccc(F)c(Cl)c3)c2cc1OCCCN1CCOCC1 [Gefitinib] + CC(C)n1c(=O)n(C)c2cnc3cc(F)c(-c4ccc(OCCCN5CCCCC5)nc4)cc3c21 [AZD1390] (first compound max 10 µM, 7x7, partner max 0.3 µM)	EW-7 (Ewing's Sarcoma)	-0.0416

Okay, next one:
Prompt: Entry under review: CS(=O)(=O)CCNCc1ccc(-c2ccc3ncnc(Nc4ccc(OCc5cccc(F)c5)c(Cl)c4)c3c2)o1 [Lapatinib] + Cn1cnc2c(F)c(Nc3ccc(Br)cc3Cl)c(C(=O)NOCCO)cc21 [Selumetinib] (first compound max 10 µM, 7x7, partner max 10 µM) . Reported Bliss excess?
Completion: 0.0166
